biological target: human 5-HT2A receptor (Homo sapiens); construct: expressed in transfected cells; host or cells: CHO; experiment: 5-HT2A FLIPR assay (calcium response to DOI) in CHO cells; type: cell-based; conditions: antagonist inhibition of 3 nM DOI stimulation, CHO cells, FLIPR
Where a name gives a salt, the structure may show the parent alone.
quantity_name: IC50 (nM)

Worked examples follow.
compound	measured_result
CNC[C@@H](O)[C@H](c1ccccc1)N1CCc2cc(C(=O)Nc3cccc(Cl)c3)ccc21 [Example 78, hydrochloride]	691
CNC[C@@H](O)[C@H](c1ccccc1)N1C(=O)C2(CCCCC2)c2cc(Cl)ccc21 [Example 27, hydrochloride]	423
CNC[C@@H](O)[C@H](c1ccccc1)n1ccc2cc(OCc3cccc(F)c3)ccc21 [Example 12, hydrochloride]	979
CNC[C@@H](O)[C@H](c1ccccc1)n1ccc2cc(OCc3ccccc3)ccc21 [Example 1, hydrochloride]	234

1 = CNC[C@@H](O)[C@H](c1ccccc1)n1ccc2cc(OCCc3ccccc3)ccc21 [Example 18, hydrochloride]
2 = CNC[C@@H](O)[C@H](c1ccccc1)N1C(=O)C2(CCCCC2)c2ccc(Cl)cc21 [Example 28, hydrochloride]
Name the one with the greater IC50 value, either 1 or 2 as given. # answer = label of selected item 1
(1: 1200 nM, 2: 213 nM)

----------
Target: human 5-HT2A receptor (Homo sapiens, UniProt P28223)
Sequence (P28223 whole entry): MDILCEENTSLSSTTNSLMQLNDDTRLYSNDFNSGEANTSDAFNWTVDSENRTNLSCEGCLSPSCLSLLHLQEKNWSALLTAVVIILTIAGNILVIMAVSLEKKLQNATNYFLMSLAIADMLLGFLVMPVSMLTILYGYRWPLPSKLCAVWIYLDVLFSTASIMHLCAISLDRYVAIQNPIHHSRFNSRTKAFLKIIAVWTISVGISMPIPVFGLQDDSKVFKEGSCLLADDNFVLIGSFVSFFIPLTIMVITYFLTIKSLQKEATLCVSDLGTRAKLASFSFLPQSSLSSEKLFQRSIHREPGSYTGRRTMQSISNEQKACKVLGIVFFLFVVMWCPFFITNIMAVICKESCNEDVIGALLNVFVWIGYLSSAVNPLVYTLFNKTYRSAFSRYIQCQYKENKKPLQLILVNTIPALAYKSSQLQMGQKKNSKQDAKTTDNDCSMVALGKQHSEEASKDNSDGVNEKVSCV
Experiment: 5-HT2A FLIPR assay (calcium response to DOI) in CHO cells
Conditions: antagonist inhibition of 3 nM DOI stimulation, CHO cells, FLIPR
Procedure: Cells are washed with PBS without Ca^2+ and 3 mL Trypsin is added to dissociate cells. After 3 minute incubation, 7 mL Trypsin Neutralizing Solution is added. Cells are then aspirated from flask and mixed in a 50 mL conical tube. […] The baseline fluorescence level is read once every second for 1 minute. Compound (10 μL) is transferred from the compound plate to the cells and the fluorescence level recorded every 6 seconds for 2 minutes to determine any agonist activity. […]
Structures can show the parent of a compound that is named as a salt.
quantity_name: IC50 (nM)

Worked examples follow.
molecule	experimental_system	measured_result
CN(C)C[C@@H](O)[C@H](c1ccccc1)N1C(=O)C2(CCCCC2)c2cc(F)ccc21 [Example 103, hydrochloride]	human 5-HT2A receptor (Homo sapiens, UniProt P28223)	77
CNC[C@@H](O)[C@H](c1ccccc1)n1ccc2cccc(OCc3ccccc3)c21 [Example 4, hydrochloride]	human 5-HT2A receptor (Homo sapiens, UniProt P28223)	1470
CNC[C@@H](O)[C@H](c1ccccc1)n1ccc2cc(OC(C)c3ccccc3)ccc21 (mixture of isomers) [Example 17, hydrochloride]	human 5-HT2A receptor (Homo sapiens, UniProt P28223)	2640
CNC[C@@H](O)[C@H](c1ccccc1)n1ccc2cc(OCc3ccccc3C)ccc21 [Example 14, hydrochloride]	human 5-HT2A receptor (Homo sapiens, UniProt P28223)	442
CCNC[C@@H](O)[C@H](c1ccccc1)n1ccc2cc(OCc3ccccc3)ccc21 [Example 83, hydrochloride]	human 5-HT2A receptor (Homo sapiens, UniProt P28223)	380

1 = CNC[C@@H](O)[C@H](c1ccccc1)n1ccc2cc(CCc3ccccc3)ccc21 [Example 94, hydrochloride]
2 = CCN(C)C[C@@H](O)[C@H](c1ccccc1)n1ccc2cc(OCc3ccccc3)ccc21 [Example 87, hydrochloride]
Name the one with the greater IC50 value, either 1 or 2 as given. # answer = label of selected item 2
